Value source: paper PMC10788941

Recorded pIC50, one value per entry.
- SYSTEM NAME: PD-1/PD-L1 complex (hPD-1, hPD-L1) (Homo sapiens, UniProt Q9NZQ7)
- Sequence (Q9NZQ7 19-238 limits assumed, one chain of several): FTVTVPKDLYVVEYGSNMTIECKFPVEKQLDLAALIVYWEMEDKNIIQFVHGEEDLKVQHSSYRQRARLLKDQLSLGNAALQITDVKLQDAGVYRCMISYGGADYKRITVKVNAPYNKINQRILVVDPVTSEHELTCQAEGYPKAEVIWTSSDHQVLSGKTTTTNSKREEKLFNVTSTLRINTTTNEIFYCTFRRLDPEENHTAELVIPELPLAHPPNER
- PROCEDURE TEXT: HTRF assay of PD-1/PD-L1 complex disruption (Cis-Bio kit)
- CONDITION LABEL: disruption of PD-1/PD-L1 complex, n = 2
pIC50: −log10 of the molar value.

>  <COMPOUND>
COc1cc(-c2cccc(-c3ccc4c(c3)OCCO4)c2Cl)ccc1CN1CCCC(C(=O)NCCO)C1 (centres unmarked)

>  <BOUND OPERATOR>
>

>  <pIC50>
9.30

$$$$
>  <COMPOUND>
COc1cc(-c2cccc(-c3ccc4c(c3)OCCO4)c2Cl)ccc1CN1CCCC(C(=O)NO)C1 (centres unmarked)

>  <BOUND OPERATOR>
=

>  <pIC50>
8.96

$$$$
>  <COMPOUND>
COc1cc(-c2cccc(-c3ccc4c(c3)OCCO4)c2Cl)ccc1CN1CCC(C(=O)NN)C1 (centres unmarked)

>  <BOUND OPERATOR>
>

>  <pIC50>
9.30

$$$$
>  <COMPOUND>
COc1cc(-c2cccc(-c3ccc4c(c3)OCCO4)c2Cl)ccc1CN1CCCC1C(=O)NC(CO)(CO)CO (centres unmarked)

>  <BOUND OPERATOR>
>

>  <pIC50>
9.30

$$$$
>  <COMPOUND>
COc1cc(-c2cccc(-c3ccc4c(c3)OCCO4)c2Cl)ccc1CN1CCC(C(=O)NN)CC1

>  <BOUND OPERATOR>
=

>  <pIC50>
7.02

$$$$
>  <COMPOUND>
COc1cc(-c2cccc(-c3ccc4c(c3)OCCO4)c2Cl)ccc1CN1CCCC(C(=O)NC(CO)(CO)CO)C1 (centres unmarked)

>  <BOUND OPERATOR>
=

>  <pIC50>
7.72

$$$$
>  <COMPOUND>
COc1cc(-c2cccc(-c3ccc4c(c3)OCCO4)c2Cl)ccc1CN1CCCC(C(=O)NN)C1 (centres unmarked)

>  <BOUND OPERATOR>
=

>  <pIC50>
7.10

$$$$
>  <COMPOUND>
COc1cc(-c2cccc(-c3ccc4c(c3)OCCO4)c2Cl)ccc1CN1CCCC1C(=O)O (centres unmarked)

>  <BOUND OPERATOR>
>

>  <pIC50>
9.30

$$$$
>  <COMPOUND>
COc1cc(-c2cccc(-c3ccc4c(c3)OCCO4)c2Cl)ccc1CN1CCC(C(=O)NC(CO)(CO)CO)CC1

>  <BOUND OPERATOR>
>

>  <pIC50>
9.30

$$$$
>  <COMPOUND>
COc1cc(-c2cccc(-c3ccc4c(c3)OCCO4)c2Cl)ccc1CN1CCCCC1C(=O)O (centres unmarked)

>  <BOUND OPERATOR>
=

>  <pIC50>
9.24

$$$$
>  <COMPOUND>
COc1cc(-c2cccc(-c3ccc4c(c3)OCCO4)c2Cl)ccc1CN1CCCC1C(=O)NN (centres unmarked)

>  <BOUND OPERATOR>
=

>  <pIC50>
7.12

$$$$
>  <COMPOUND>
COc1cc(-c2cccc(-c3ccc4c(c3)OCCO4)c2Cl)ccc1CN1CCC(C(=O)NCCN)CC1

>  <BOUND OPERATOR>
>

>  <pIC50>
9.30

$$$$
>  <COMPOUND>
COc1cc(-c2cccc(-c3ccc4c(c3)OCCO4)c2Cl)ccc1CN1CCCC(C(=O)O)C1 (centres unmarked)

>  <BOUND OPERATOR>
>

>  <pIC50>
9.30

$$$$
>  <COMPOUND>
COc1cc(-c2cccc(-c3ccc4c(c3)OCCO4)c2Cl)ccc1CN1CCCCC1C(=O)NN(C)C (centres unmarked)

>  <BOUND OPERATOR>
=

>  <pIC50>
7.25

$$$$
>  <COMPOUND>
COc1cc(-c2cccc(-c3ccc4c(c3)OCCO4)c2Cl)ccc1CN1CCC(C(=O)NC(CO)CO)C1 (centres unmarked)

>  <BOUND OPERATOR>
>

>  <pIC50>
9.30

$$$$
>  <COMPOUND>
COc1cc(-c2cccc(-c3ccc4c(c3)OCCO4)c2Cl)ccc1CN1CCC(C(=O)NO)CC1

>  <BOUND OPERATOR>
=

>  <pIC50>
6.12

$$$$
>  <COMPOUND>
COc1cc(-c2cccc(-c3ccc4c(c3)OCCO4)c2Cl)ccc1CN1CCCCC1C(=O)NC(CO)(CO)CO (centres unmarked)

>  <BOUND OPERATOR>
=

>  <pIC50>
6.32

$$$$
